All values here come from a melting point compilation (Tetko et al.; mined from patent text by program, amines drawn as free bases though some values may be those of a salt).

PROPERTY LABEL: melting point

As a guide, the following entries are already answered.
1. O=Cc1c2ccccc2c(Cl)c2c(Cl)cccc12	167 to 170 °C
2. CC(C)(O)c1c(F)ccc(-c2ccc3nc(-c4ccc(Cl)cc4)cn3c2)c1F	191 to 192 °C
3. C=CCNC(=S)n1nc(Oc2ncc(C(F)(F)F)cc2Cl)cc1C	46 to 48 °C
4. COc1c(OC2CCC3(CC2)OCC(C)(C)CO3)ccnc1C	90 °C
5. Cc1cccc(-c2sc(N)nc2-c2ccnc(-c3ccc(OCCN4CCCC4)cc3)c2)n1	150 °C
6. CCn1cc(C(=O)O)c(=O)c2c(F)c(F)c(N3CCNC(C)C3)c(F)c21 (stereo not given)	220 to 222 °C
7. CCOC(=O)COc1cc(O)ccc1C(=O)c1ccc(OCc2nc(-c3ccccc3)oc2C)cc1	184 to 186 °C
8. Clc1cc(Cl)nc(NC2CCCC2)n1	48 to 52 °C
9. Cc1cccc(NC(=O)NC2N=C(C(C)C)c3cccc(C)c3N(CC(=O)N3CC4CCC(CC4)C3)C2=O)c1 (stereo not given)	190 to 193 °C
10. COc1ccc(CN(C)CCCc2ccc(NC(=O)c3cccc4c(=O)c5ccccc5[nH]c34)cc2)cc1OC	112 °C

IN: Entry under review: CCOC(=O)/C=C/c1cc(OCc2ccccc2)ccc1Br . Reported melting point?
OUT: 72 to 74 °C

IN: Any idea what melting point was measured for Cc1ccc(-c2nc(Cc3cc4cc(N(OCc5ccccc5)C(N)=O)ccc4o3)c(C)o2)cc1 ?
OUT: 77 to 80 °C

IN: Entry CC1(C)OCCC(=NO)c2ccccc2NC1=O has what melting point?
OUT: 205 to 206 °C

IN: For the molecule shown here, O=C(O)c1cccnc1Cc1ccccc1 , give the reported melting point.
OUT: 180 to 182 °C

====

PROPERTY LABEL: melting point

1. CC(=O)N(CCN1CCNC1=C(C#N)C#N)Cc1ccc(CN2CCCCC2)o1	166 to 167 °C
2. COc1cc(-c2cccs2)cc(OC)c1/C=C/C(=O)c1ccc(C(=O)O)cc1	256 to 258 °C
3. O=CN1CCCN2c3ccccc3Cc3ccccc3C2C1 (stereo not given)	146 to 148 °C

IN: # input molecule: Clc1cc2c(c(-c3nc4ncccc4o3)c1)CCCC2 ; wanted: its melting point
OUT: 130 to 132 °C

IN: Query: melting point; subject: O=C(Nc1cccc2ccccc12)OCCCC(O)c1ccccc1 (stereo not given)
OUT: 92 °C

IN: For the molecule shown here, C#Cc1cccc(-c2cccc([N+](=O)[O-])c2-c2cc(C#C)ccn2)c1 , give the reported melting point.
OUT: 130 to 132 °C

IN: melting point lookup needed for O=C(O)c1ccc(OCCCON=Cc2cn(Cc3ccccc3)c3ccccc23)c(-c2ccc(C(F)(F)F)cc2)c1 , thanks.
OUT: 193 to 194 °C

====

PROPERTY LABEL: melting point

Take a look at these entries with their results.
1) COC(=O)c1ccc(OCC2CC(=O)N(c3ccc(N)cc3)C2)cc1 (centres undefined)	136 to 138 °C
2) CSc1cc2c(cc1C(F)(F)F)N(C(=O)Nc1cccc(C(=O)Nc3cccnc3)c1)CC2	195 to 197 °C
3) O=C(O)CCc1cn(Cc2ccc(OCc3ccccn3)cc2)cc1-c1ccccc1	109 to 110 °C

For the next question, use this compound.
IN: Recorded melting point for CN1CCc2cc(OC[C@H]3CO[C@](Cn4ccnc4)(c4ccc(Cl)cc4Cl)O3)ccc2C12CCSCC2 (racemic) , please?
OUT: 138 to 139 °C

====

PROPERTY LABEL: melting point

Example results:
1) O=c1[nH]c2cc(Cl)ccc2c(=O)c2c(C(F)(F)F)n[nH]c12	334 to 336 °C
2) O=[N+]([O-])N=C1NC(O)CN1Cc1ccc(Cl)nc1 (centres undefined)	170 °C
3) CC1(C)CC(CCn2c(=O)[nH]c3ncc(-c4ccc(O)cc4)nc32)CCO1 (centres undefined)	232 to 234 °C
4) COc1c(C)cc(-c2nn(C(C)c3oc4ccccc4c(=O)c3-c3cccc(F)c3)c3ncnc(N)c23)cc1C (centres undefined)	234 to 236 °C
5) CC(=O)OC1CSC(Sc2ccc(C(F)(F)F)cc2)C(OC(C)=O)C1OC(C)=O (centres undefined)	160 °C

IN: I'd like to know its melting point. The molecule in question is Nc1ccsc1C(=O)NCC1CCN(C[C@H]2COc3ccc(Cl)cc3O2)CC1
OUT: 200 to 202 °C

====

PROPERTY LABEL: melting point (°C)

[A] O=c1[nH]cnc2c1cnn2-c1ncc(C(F)(F)F)cc1Cl
[B] C[C@H](NC(=O)OC(C)(C)C)C(=O)OC[C@@H]1CCCN1c1cccc2c1C(=O)c1ccccc1C2=O
IN: Identify the entry with the larger melting point. Options: A and B State your choice using its label.
OUT: A

====

PROPERTY LABEL: melting point (°C)

1. CCCC#Cc1cnc(-c2ccc(C(F)(F)F)cc2)nc1	140
2. CCC(=O)N1CCC(C(=O)OC2c3ccccc3C(=O)N2c2ccc3ccc(Cl)nc3n2)CC1 (stereo not given)	189

====

// reported melting point for each item listed

Previously resolved entries follow.
1) CN1CCN(c2cccc3ccc(NC(=O)C(F)(F)F)cc23)CC1	159 to 160 °C
2) O=C(O)Cn1cc(Cc2nc3cc(C(F)(F)F)ccc3s2)c2ccccc21	233 to 234 °C
3) CC(C)(C)[Si](C)(C)OC1CCN(S(=O)(=O)c2ccc(N3CCCCC3)cc2)C1=S (stereo unspecified)	152 to 153 °C
4) O=C1SC(Cc2ccc(OCCn3ccc4ccccc43)cc2)C(=O)N1C(c1ccccc1)(c1ccccc1)c1ccccc1 (stereo unspecified)	63.5 to 65.9 °C

IN: Request the reported melting point associated with CCn1cc(-c2nc(C#N)c(N)nc2-c2ccccc2)ccc1=O
OUT: 193 to 199 °C

IN: Which value of melting point has been reported for O=C(O)c1cn(C2CC2)c2nc3cc(N4CCNC(c5cccs5)C4)c(F)cc3cc2c1=O (racemic) in the records?
OUT: 245 °C

IN: Can you share its melting point? I mean this molecule: CCOc1cc(C=C(Br)Br)ccc1OC
OUT: 41 to 42 °C

IN: Quick one: melting point of COc1cc(OC)c(S(C)(=O)=O)cc1C(=O)O ?
OUT: 292 °C

IN: Need melting point, item COc1ccc(OCCCCCCCc2cc(C)no2)c(Cl)c1
OUT: 45 to 46 °C

IN: Tell me the measured melting point of c1cc(-c2cccc3ncoc23)c2ocnc2c1 , please.
OUT: 226 to 228 °C

IN: Any idea what melting point was measured for CC(C)CC1(CC(=O)NOCc2ccccc2)CC(=O)N(CCc2ccccc2)C1=O (stereo unspecified) ?
OUT: 115 to 117 °C

IN: Field request: melting point | item: COC(=O)c1ccc(OC)c(C=O)c1O
OUT: 123 to 124 °C

IN: What value of measured melting point is listed for CCOC(=O)CSc1nc(N)cc(Cl)n1 ?
OUT: 113 to 116 °C

====

PROPERTY LABEL: melting point

Observe how each entry below is paired with its result.
1. COc1cc2nc(-c3ccccc3)nc(N3CCN(C(=O)Nc4ccc([N+](=O)[O-])cc4)CC3)c2cc1OC	156 to 157 °C
2. Cc1ccc(C2COc3c(C)c(C)cc(C)c32)cc1 (configuration not stated)	65 to 66 °C
3. CC(C)[C@H](S)C(=O)NC(C)(C)C(=O)N[C@@H](Cc1ccc(O)cc1)C(=O)O	180 to 181 °C

In the following, a different molecule is considered.
IN: May I ask what melting point has been recorded for COC(=O)CN1CC([N+](=O)[O-])=C(Cc2ccc(C(C)(C)C)cc2)C=C1C ?
OUT: 135 °C

====

Form field: melting point (one value per entry).

IN: Look up melting point for this compound: CCCCOC(=O)CNC(=O)c1ncccc1OCc1ccccc1
OUT: 55 to 58 °C

IN: Returns the measured melting point for the input compound. Input: CC(C)(C(=O)O)c1ccc(C(=O)Nc2cn3c4c(ccc3n2)OCC4)cc1
OUT: 293 to 295 °C

IN: Suppose we examine the compound CCCCCNC(=O)NCCCCCOc1cccc2sc(NC(C)=O)nc12 ; what melting point value has been reported?
OUT: 61.6 to 61.8 °C

IN: I would be grateful if you could share the reported melting point for Cc1nsc(-n2cc(C(=O)O)c(=O)c3cc(F)c(N4CCCC4)nc32)n1 .
OUT: > 300 °C

IN: Please give the measured melting point for this compound: CC1CCN(Cc2cccc(OCCCNS(=O)(=O)CCNc3ccc(Cl)c(Cl)c3)c2)CC1
OUT: 130 to 135 °C

IN: Endpoint output: melting point of CCc1c(-c2ccccc2)c2c(c3c1[nH]c1ccc(O)cc13)C(=O)NC2=O . Value?
OUT: 190 to 196 °C

IN: Can you share its melting point? I mean this compound: CC(C)CCN1N=C(c2ccc(F)cc2)c2cc(F)ccc2CS1(=O)=O
OUT: 130 to 133 °C

IN: Entry [O-][N+]1=C(c2ccccc2)c2cc(Cl)ccc2C=CC1 has what melting point?
OUT: 122 to 123 °C

IN: Sample CNS(=O)(=O)c1cc(C2(O)CCC(=O)N2C)ccc1Cl (stereo not given) — what was its melting point?
OUT: 147 to 150 °C

IN: Data request, read-out melting point, for CN(C)CCCC1(O)c2ccccc2OC12CCCCCC2 (stereo not given)
OUT: 96 to 98.5 °C
